Structures can show the parent of a compound that is named as a salt.
measure: melting point (°C)
Write the answer as a number in °C, unit excluded.

Completed entries (count: 3):
| compound | numeric-value |
| --- | --- |
| COc1cc(C(F)(F)F)nnc1NC1CCN(Cc2cccc(C(F)(F)F)c2)CC1 (as salt: hydrochloride) | 211.3 |
| COc1cc(Cl)nnc1NC1CCN(Cc2cc(F)cc(C(F)(F)F)c2)CC1 | 121.5 |
| COc1cc(Cl)nnc1NC1CCN(Cc2cc(F)c(F)c(F)c2)CC1 | 150.7 |

Next compound, melting point to be filled in.
So what's the measured melting point for this one? `COc1cc(Cl)nnc1NC1CCN(Cc2ccc(F)c(F)c2)CC1`
130.5
